# System: DU-145
# assay.notes: NCI tumour cell line growth inhibition, 48 h
The source made the active and inactive calls. Cut-off read from the data, not from the text of the source: active = GI50 up to about 1.1 µM and inactive = higher.

molecule | target.system | GI50
COc1ccc2nc(N/N=C/C(C)=N/Nc3cc(C)c4cc(OC)ccc4n3)cc(C)c2c1 | DU-145 | 18.1 µM (inactive)
CCOC(=O)c1cn(CC)c(=O)n2c1nc1ccccc12 | DU-145 | 45.5 µM (inactive)
Br/C(=N\N=c1/nn[nH][nH]1)c1ccncc1 | DU-145 | > 100 µM (inactive)
Nc1nc(Cl)c2nnn(CC3CCC(CO)C3)c2n1 (stereo unspecified) | DU-145 | > 100 µM (inactive)
Cc1ccc(/N=N/C(=O)NNc2ccc(C)c([N+](=O)[O-])c2)cc1[N+](=O)[O-] | DU-145 | 25.1 µM (inactive)
CC(C)=CCN(N=O)c1ncnc2[nH]cnc12 | DU-145 | > 100 µM (inactive)
